Measured Difference, listed per entry for reference.
- System: NCI-H292 lung cancer cells
- assay.procedure: FDA drug screening, complete media vs cholesterol-free media with simvastatin (TABLE 2)
- Assay type: cell-based, human
- condition.context: complete media minus cholesterol-free media + simvastatin; >0 enhanced anti-cancer activity, about 0 neutral, <0 antagonist
Structures can show the parent of a compound that is named as a salt.
// response body must contain only the number

Sample answers from the record:
compound | reported.value
CCCCNc1cc(C(=O)O)cc(S(N)(=O)=O)c1Oc1ccccc1 [Bumetanide] | 0.09
COc1cc2nc(N(C)CCCNC(=O)C3CCCO3)nc(N)c2cc1OC (stereo not drawn) [Alfuzosin (hydrochloride)] | 0.23
CN(C)c1ccc2nc3ccc(=[N+](C)C)cc-3sc2c1 [Methylene blue (trihydrate)] | 0.05
CC1(C)O[C@@H]2[C@@H](CO[C@@]3(COS(N)(=O)=O)OC(C)(C)O[C@@H]23)O1 [Topiramate] | 0.04
CC(=O)N1CCN(c2ccc(OC[C@H]3CO[C@](Cn4ccnc4)(c4ccc(Cl)cc4Cl)O3)cc2)CC1 [(+)-Ketoconazole] | 0.48

Report Difference, nothing else, for this compound: COc1ccc2c(c1)c(CC(=O)O)c(C)n2C(=O)c1ccc(Cl)cc1 [Indomethacin]
0.20

Please report Difference for the following compound: O=C(O)/C=C/c1ccc(Cn2ccnc2)cc1 [Ozagrel]
0.44

Complete the entry with Difference for CN(C)CCOC(c1ccccc1)c1ccccc1 [Diphenhydramine (hydrochloride)]
0.16

Quickly give me recorded Difference for NC(=O)c1cccc2cn(-c3ccc([C@@H]4CCCNC4)cc3)nc12 [Niraparib (hydrochloride)]
0.10

Write down Difference measured for item O=c1ccn([C@@H]2O[C@H](COP(=O)([O-])OP(=O)([O-])OP(=O)([O-])OP(=O)([O-])OC[C@H]3O[C@@H](n4ccc(=O)[nH]c4=O)[C@H](O)[C@@H]3O)[C@@H](O)[C@H]2O)c(=O)[nH]1.[Na+].[Na+].[Na+].[Na+] [Diquafosol (tetrasodium)]
0.16
